Kindly state LC50 at 24 h for each of the entries shown.
- Measurement description: Toxicity in brine shrimp nauplii assessed as induction of lethality incubated for 24 hrs by counting method
- Condition set: artemia salina
Give bare numbers, in µM.

Please review the following examples before continuing.
Clc1nc2ccccc2cc1CN(c1ccccc1)c1nnc(-c2cccnc2)o1 :: 26
Cc1ccc2nc(Cl)c(CN(c3ccccc3)c3nnc(-c4cccnc4)o3)cc2c1 :: 26

Continue with the next compound.
Q: # LC50 at 24 h lookup, item "Clc1ccc2nc(Cl)c(CN(c3ccccc3)c3nnc(-c4cccnc4)o3)cc2c1"
Result: 26

###

- System: Mycobacterium tuberculosis
- Measurement description: Antimycobacterial activity against Mycobacterium tuberculosis H37Rv incubated for 5 days by microplate alamar blue assay
- Assay type: functional
- Condition set: 120 h, time 5 day
Value kind: MIC

Some compounds with known MIC results, for comparison:
CN[C@@H]1[C@H](O[C@H]2[C@H](O[C@H]3[C@H](O)[C@@H](O)[C@H](N=C(N)N)[C@@H](O)[C@@H]3N=C(N)N)O[C@@H](C)[C@]2(O)C=O)O[C@@H](CO)[C@H](O)[C@H]1O :: 6.25 µg/mL
Cn1c(-c2cccc(Cl)c2Cl)nc2cc(-c3nc(-c4ccc(Cl)cc4)no3)ccc21 :: 1.6 µg/mL
O=c1[nH]nc(Cc2coc3ccc(Cl)cc23)o1 :: 3.12 µg/mL

Consider the record given below.
Q: Notebook: pull reported MIC for Mycobacterium tuberculosis, entry "O=c1[nH]nc(Cc2coc3cc(Br)ccc23)o1"
Result: 1.56 µg/mL

###

Field: MIC. Provide a value for each of the molecules that follow.
- Test system: Mycobacterium tuberculosis
- Measurement description: Antimycobacterial activity against Mycobacterium tuberculosis H37Rv incubated for 5 days by microplate alamar blue assay
- Format: functional
- Condition set: 120 h, time 5 day
Give bare numbers, in µg/mL.

Cn1c(-c2cccc(Cl)c2F)nc2cc(-c3nc(-c4ccc(Cl)cc4)no3)ccc21 :: 1.6
O=c1[nH]nc(Cc2coc3cc(Cl)ccc23)o1 :: 3.12
Cn1c(-c2cccc(Cl)c2Cl)nc2cc(-c3nc(-c4ccccc4Cl)no3)ccc21 :: 1.6

Here's the next entry for you.
Q: Notebook entry, Mycobacterium tuberculosis assay: MIC of NC(=O)c1cnccn1 [PYRAZINAMIDE] = ?
Result: 3.12

###

- Measurement description: Selectivity index, ratio of IC50 for CHO-K1 cells to MIC for Mycobacterium tuberculosis H37Rv
- Format: toxicity
- Condition set: hamster
Value kind: selectivity ratio

Q: Would you mind telling me what selectivity ratio value was observed for "Oc1ccc(-c2nnc(S)o2)cc1" ?
Result: 39
